measured-target: Human 5-HT1A Receptor (Homo sapiens)
Construct: expressed in transfected cells; host or cells: CHO cells
Sequence (P08908 1-422): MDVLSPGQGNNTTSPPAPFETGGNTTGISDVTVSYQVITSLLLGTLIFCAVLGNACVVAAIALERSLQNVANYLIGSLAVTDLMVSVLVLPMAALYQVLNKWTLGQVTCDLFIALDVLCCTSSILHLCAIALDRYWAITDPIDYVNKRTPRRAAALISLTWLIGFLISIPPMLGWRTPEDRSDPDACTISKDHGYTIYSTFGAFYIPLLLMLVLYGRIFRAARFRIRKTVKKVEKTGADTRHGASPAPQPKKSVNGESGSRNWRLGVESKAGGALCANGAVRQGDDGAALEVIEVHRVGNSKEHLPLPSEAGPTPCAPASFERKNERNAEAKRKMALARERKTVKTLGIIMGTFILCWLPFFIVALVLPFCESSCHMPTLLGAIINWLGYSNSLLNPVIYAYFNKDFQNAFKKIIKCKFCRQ
assay-method-text: cAMP RIA in human 5-HT1A receptor cell line
Type: cell-based
run-conditions: superscript c; forskolin stimulated cAMP, CHO cells; read-out: c-AMP, (Emax)^c
Structures can show the parent of a compound that is named as a salt.
observable: Emax

- compound: "Cc1ccc2c3c(ccc2n1)OC[C@H](CN(CC1CC1)C[C@@H]1CCc2[nH]c4ccc(F)cc4c2C1)O3 [Example 55, dihydrochloride dihydrate]"
  observable: "Emax"
  data-value: "67%"
- compound: "Cc1ccc2c3c(ccc2n1)OC[C@H](CNCC[C@H]1CCc2[nH]c4ccc(F)cc4c2C1)O3 (single isomer, unassigned) [Example 42, dihydrochloride]"
  observable: "Emax"
  data-value: "87%"
- compound: "CCCN(C[C@@H]1CCc2[nH]c3ccc(F)cc3c2C1)C[C@H]1COc2ccc3nc(C)ccc3c2O1 [Example 54, dihydrochloride dihydrate]"
  observable: "Emax"
  data-value: "48%"
